- Test system: ryegrass, Italian
- Protocol: Test A pre-/postemergence herbicide test
- Type: in vivo, Lolium multiflorum
- Recorded conditions: Preemergence, 125 g ai/ha; 0 to 100 scale where 0 is no effect and 100 is complete control
Each entry below carries its recorded Plant response rating, Ryegrass, Italian.
Number only, no unit.

Molecule	Test system	Plant response rating, Ryegrass, Italian
O=C1NCC(c2cnn(CC(F)(F)F)c2)C1C(=O)Nc1ccccc1F (stereo not shown) [Compound 298]	ryegrass, Italian	0
O=C1NCC(c2cccc(Oc3ccccc3)c2)C1C(=O)Nc1ccc(F)cc1F (stereo not shown) [Compound 331]	ryegrass, Italian	0
O=C1NCC(c2ccc(Br)c(Br)c2)C1C(=O)Nc1ccc(F)c(F)c1F (stereo not shown) [Compound 342]	ryegrass, Italian	0
CC(C)c1cccc(C2CNC(=O)C2C(=O)Nc2ccccc2F)c1 (stereo not shown) [Compound 318]	ryegrass, Italian	20
O=C1NCC(c2cnn(CC(F)(F)F)c2)C1C(=O)Nc1ccccc1C(F)(F)F (stereo not shown) [Compound 300]	ryegrass, Italian	0

As a next step, examine the molecule that follows.
stdin: Quick one: Plant response rating, Ryegrass, Italian of O=C1NCC(c2ccc(OC(F)F)cc2)C1C(=O)Nc1cccc(F)c1F (racemic) [Compound 350] ?
stdout: 0

---

# Plant response rating, Morningglory per record follows
- System: morningglory
- Protocol: Test A pre-/postemergence herbicide test
- Format: in vivo, Ipomoea spp.
- Recorded conditions: Postemergence, 125 g ai/ha; 0 to 100 scale, 0 no effect, 100 complete control
Please reply with the number alone, leaving off any unit.

Example entries and their recorded answers appear below.
Molecule	Plant response rating, Morningglory
O=C1NCC(c2ccc(Cl)nc2)C1C(=O)Nc1ccccc1F (stereo not drawn)	0
O=C1NCC(c2ccc(F)c(C(F)(F)F)c2)C1C(=O)Nc1cccc(F)c1F (racemic)	0
O=C1NCC(c2ccc(F)c(F)c2)C1C(=O)Nc1ccccn1 (stereo not drawn)	40
Cc1cccc(C2CN(C(=O)OC(C)(C)C)C(=O)C2C(=O)Nc2ccccc2F)c1 (stereo not drawn)	0
O=C1NCC(c2ccccc2F)C1C(=O)Nc1ccccc1F (racemic)	0

Now for another entry.
stdin: Reported Plant response rating, Morningglory, molecule O=C1NCC(c2ccccc2Cl)C1C(=O)Nc1ccccc1F (racemic) : ____
stdout: 0

---

Listing: Plant response rating, Ragweed of selected compounds
- Test system: ragweed
- Protocol: Test A pre-/postemergence herbicide test
- Assay type: in vivo, Ambrosia elatior
- Recorded conditions: preemergence; 500 g ai/ha; 0 to 100 scale, 0 is no effect and 100 is complete control
Respond using a number only.

Worked cases, answers included:
Compound	Measured result
CC(C)N1CC(c2ccc(F)cc2)C(C(=O)Nc2cccc(F)c2F)C1=O (stereo not shown)	0
COc1ccc(C2CNC(=O)C2C(=O)Nc2ccccc2F)cc1C(F)(F)F (racemic)	0
O=C1NCC(c2ccc(C(F)(F)F)cc2)C1C(=O)Nc1ccccc1F (stereo not shown)	90

stdin: Which measured Plant response rating, Ragweed belongs to O=C1NCC(c2cccc(S(F)(F)(F)(F)F)c2)C1C(=O)Nc1cccc(F)c1F (stereo not shown) , tested on ragweed?
stdout: 0

---

- Test system: barnyardgrass
- Protocol: Test A pre-/postemergence herbicide test
- Assay type: in vivo, Echinochloa crus-galli
- Recorded conditions: Postemergence, 125 g ai/ha; 0 to 100 scale, 0 no effect, 100 complete control
Threshold check on Plant response rating, Barnyardgrass: strictly below 70 is True; on or above 70 is False.

Compound	Class
Cc1cccc(C2CNC(=O)C2C(=O)Nc2ccccc2F)c1 (racemic)	True
O=C1NCC(c2ccccc2Cl)C1C(=O)Nc1ccccc1F (racemic)	True
O=C1NCC(c2cc(Cl)cc(Cl)c2)C1C(=O)Nc1ccccc1F (racemic)	True
Cc1cc(C2CNC(=O)C2C(=O)Nc2ccc(F)c(F)c2F)ccc1F (racemic)	False
O=C1NCC(c2cc(F)c(F)cc2F)C1C(=O)Nc1cccc(F)c1F (stereo not drawn)	False
O=C1NCC(c2cccc(C(F)(F)F)c2)C1C(=O)Nc1ccccn1 (racemic)	True
O=C1NCC(c2ccc3c(c2)OC(F)(F)O3)C1C(=O)Nc1ccccc1F (stereo not drawn)	True
O=C1NCC(c2cccc(C(F)(F)F)c2)C1C(=O)Nc1nnc(C(F)(F)F)s1 (racemic)	True
O=C1NCC(c2ccc(Cl)cc2Cl)C1C(=O)Nc1ccccc1F (racemic)	True
Cc1ccccc1NC(=O)C1C(=O)NCC1c1cccc(C(F)(F)F)c1 (racemic)	False

stdin: Plant response rating, Barnyardgrass under 70? Item: O=C1NCC(c2ccc(F)c(Cl)c2)C1C(=O)Nc1ccccc1F (stereo not drawn)
stdout: False

stdin: Given the entry Cc1ccc(C2CNC(=O)C2C(=O)Nc2ccc(F)c(F)c2F)cc1F (racemic) , would its reported Plant response rating, Barnyardgrass be below 70?
stdout: False

stdin: # TODO verify Plant response rating, Barnyardgrass < 70 strictly for this compound: O=C1NCC(c2ccsc2)C1C(=O)Nc1ccccc1F (racemic)
stdout: True

stdin: Is the reported Plant response rating, Barnyardgrass for O=C1NCC(c2ccc(F)c(F)c2)C1C(=O)Nc1ccccn1 (stereo not drawn) strictly below 70?
stdout: True

stdin: Field: below-cutoff. Rule: recorded Plant response rating, Barnyardgrass strictly less than 70. Subject: O=C1NCC(c2ccc(Cl)c(Cl)c2)C1C(=O)Nc1ccccc1F (racemic)
stdout: True

Origin of the recorded values: patent US10294202B2
